# Assay Procedure: melting temperature; fluorescence melt of hairpins on a sequencing array, two-state fit, raised by 9.35 °C to match UV melts
# Test Settings: sodium 0.088 M
Measurement Label: Tm (°C)
# unit: °C | format: bare number

Prompt line: Returns the measured Tm for the input sequence. Input: GCCTTCGAAAGAATGGGC ((((((....)))..)))
Response line: 42.5

Prompt line: I am curious: what Tm value has been reported for GCTAGGCGAAAGCCGGGC ((..(((....)))..)) ?
Response line: 60

Prompt line: Data request, read-out Tm, for GCCCTCACGAAAGTGGGC (((..(((....))))))
Response line: 53.5

Prompt line: Consider the sequence shown here: GATCGGCGCTCCGATC ((((((....)))))) What is its recorded Tm?
Response line: 56.9

Prompt line: Param item = GCGGGTCTCCGC ((((....)))) ; retrieve measured Tm.
Response line: 67.7

Prompt line: What does the data say about its Tm? Entry: GGACCCCGAAAGGGCTCC (((.(((....))).)))
Response line: 48.6

Prompt line: For the sequence shown here, GTAACCGAAAGGTTAC ((((((....)))))) , give the reported Tm.
Response line: 67.1

Prompt line: Reported Tm, sequence GTTAGCACGAAAGTGAAC (((..(((....)))))) : ____
Response line: 27

Prompt line: Entry under review: GATCCAGAATTGGATC ((((((....)))))) . Reported Tm?
Response line: 57.2

Prompt line: May I ask what Tm has been recorded for GGATGGGGAAACCCATCC (((((((....))))))) ?
Response line: 66.4

Prompt line: Fill blank: measured Tm of the sequence GATGAGGGAAACCCCATC ((((.((....)).)))) is ____.
Response line: 41.2

Prompt line: // query Tm value for entry GCCAAGAAATTGGC (((((....)))))
Response line: 52.3

Prompt line: Fill blank: measured Tm of the sequence GATCAGGCACTGATC ((((((...)))))) is ____.
Response line: 59.8

Prompt line: Please give the measured Tm for this sequence: GCGATCCGAAAGGAACGC (((.(((....))).)))
Response line: 66.8

Prompt line: Need Tm, item GCGTGGTACGC ((((...))))
Response line: 56.3

Prompt line: Tm for GCAAGAGGAAACCCTTGC (((((.(....).))))) ?
Response line: 45.3

Prompt line: Return reported Tm; argument: GATATCGGAAACGATACC (.(((((....))))).)
Response line: 33.7

Prompt line: Quick check: Tm of GATCGCACTGCGATC ((((((...)))))) ?
Response line: 68.3

Prompt line: Using the record for GTTTATGGAAACGTAAAC (((((.(....).))))) , report its Tm.
Response line: 37.5

Prompt line: Look up Tm for this sequence: GTCCACGAAAGTGGTGAC ((((((....)))..)))
Response line: 38.2

Prompt line: Query: Tm; subject: GACCTCGGAAACAAGGTC (((((.(....).)))))
Response line: 40.9

Prompt line: Name the reported Tm value associated with the sequence GGGCTCGGAAACGAGTCC ((.((((....)))).))
Response line: 65.2

Prompt line: Look up Tm: GCGCAGCGAAAGCTCGC (((.(((....))))))
Response line: 63.3

Prompt line: Which Tm is listed for GCTCCGCGAAAGCAGCGC ((.(.((....)).).)) ?
Response line: 43.7

Prompt line: Endpoint output: Tm of GCGTTGCGAAAGCACAGC ((..(((....)))..)) . Value?
Response line: 51.1

Prompt line: Would you kindly share the measured Tm for GATCCACCTCTGGATC ((((((....)))))) ?
Response line: 49

Prompt line: Sample GCAGGCACGAAAGTGTGC (((..(((....)))))) — what was its Tm?
Response line: 39.1

Prompt line: Find the recorded Tm belonging to GGTCCCGAAAGGGATACC ((((((....)))..))) and report it.
Response line: 41.4

Prompt line: Endpoint output: Tm of GCATCCGCGAAAGCGTGC (((..(((....)))))) . Value?
Response line: 40.3

Prompt line: Could you tell me which Tm is on file for GCCCTTGGAAACAGGGGC ((((.((....)).)))) ?
Response line: 54.4

Prompt line: GET /values?readout=Tm&item= GAGGCCGGAAACGGCCCC (.(((((....))))).)
Response line: 51.2

Prompt line: Report Tm for GTACGTGGAAACACATAC (((.(((....))).))) please.
Response line: 32.7

Prompt line: Given the sequence GTCGACGGAAACGTCGGC (.(((((....))))).) , what is its reported Tm?
Response line: 64.8

Prompt line: Given the entry CGTATCGGAAACGAGACG (((.(((....))).))) , report its measured Tm.
Response line: 53.3

Prompt line: What does the record list as Tm for GTGGGCGAAAGCCACAC ((((((....))).))) ?
Response line: 59.9

Prompt line: # query: Tm of entry GATCTGATCCAGATC ((((((...))))))
Response line: 47.6

Prompt line: For the sequence GACGTGCGAAAGCAAGTC (((.(((....))).))) , what Tm is on record?
Response line: 60.5

Prompt line: Give its Tm value. Item: GAGAGGACGAAAGTCCTC (((..(((....))))))
Response line: 60.8

Prompt line: Given the entry GGCGCCGAAAGGCCGGCC ((((((....)))..))) , report its measured Tm.
Response line: 58.7

Prompt line: For GCGAAGCGAAAGCGCCGC (((..((....))..))) , what is its reported Tm?
Response line: 65.4

Prompt line: What does the data say about its Tm? Entry: GATCGAAGTTCGATC ((((((...))))))
Response line: 50.3

Prompt line: Which value of Tm has been reported for GAACGAGAAATCGTTC ((((((....)))))) in the records?
Response line: 54.5

Prompt line: # query: Tm of entry GATCTCGCCGGAGATC ((((((....))))))
Response line: 54.4

Prompt line: What value of measured Tm is listed for GAGTACGAAAGTATCTC ((((((....))).))) ?
Response line: 41.9

Prompt line: Request the reported Tm associated with GTCCAGGGAAACTTGGAC (((((.(....).)))))
Response line: 48.2

Prompt line: Tm for GCGGAGCGAAAGCATCGC (((..((....))..))) ?
Response line: 55.7

Prompt line: Need Tm, item GTGGTACGAAAGTAACAC (((.(((....))).)))
Response line: 58.2

Prompt line: Request the reported Tm associated with CGTTCGGAAACGAAACG ((((((....))).)))
Response line: 45.8

Prompt line: Sample GCCCTTGGAAACAAGAGC ((.((((....)))).)) — what was its Tm?
Response line: 37.6

Prompt line: Report Tm for GATCCCTTAAGGGATC ((((((....)))))) please.
Response line: 65.6
